# Protocol summary: Binding affinity to Hsp70 nucleotide binding domain
Quantity measured: Kd (nM)
One number for each entry, in nM.

Supply measured Kd of N#Cc1ccc(COC[C@H]2O[C@@H](n3c(NCc4ccc(Cl)c(Cl)c4)nc4c(N)ncnc43)[C@H](O)[C@@H]2O)cc1 in your reply.
300

----------
# Target desc: Heat shock cognate 71 kDa protein (Homo sapiens, UniProt P11142)
# Sequence (P11142 whole entry): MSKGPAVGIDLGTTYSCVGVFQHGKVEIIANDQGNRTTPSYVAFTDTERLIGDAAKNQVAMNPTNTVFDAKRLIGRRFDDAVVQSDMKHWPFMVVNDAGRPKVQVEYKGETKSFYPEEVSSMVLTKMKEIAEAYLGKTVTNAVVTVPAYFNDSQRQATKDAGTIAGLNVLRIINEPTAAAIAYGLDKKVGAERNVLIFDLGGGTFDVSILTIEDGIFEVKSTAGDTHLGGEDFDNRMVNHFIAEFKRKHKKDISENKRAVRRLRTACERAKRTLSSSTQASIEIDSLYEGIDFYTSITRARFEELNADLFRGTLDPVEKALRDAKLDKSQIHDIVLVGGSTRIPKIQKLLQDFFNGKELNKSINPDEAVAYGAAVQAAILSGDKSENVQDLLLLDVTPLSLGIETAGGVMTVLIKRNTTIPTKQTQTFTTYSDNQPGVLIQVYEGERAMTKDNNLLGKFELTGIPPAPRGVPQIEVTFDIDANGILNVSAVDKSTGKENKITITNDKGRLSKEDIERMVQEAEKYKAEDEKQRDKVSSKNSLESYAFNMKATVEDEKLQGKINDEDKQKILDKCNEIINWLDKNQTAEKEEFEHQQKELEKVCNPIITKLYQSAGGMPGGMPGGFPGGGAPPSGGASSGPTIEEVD
Quantity measured: Kd (nM)
Answers are plain numbers, in nM.

Supply measured Kd of Nc1ncnc2c1ncn2[C@@H]1O[C@H](COP(=O)(O)OP(=O)(O)O)[C@@H](O)[C@H]1O [ADENOSINE DIPHOSPHATE] in your reply.
260
